MEASUREMENT NOTES: Terminal half life in C57BL/6 mouse at 3 mg/kg, iv
Assay type: ADME, organism-based
EXPERIMENTAL CONDITIONS: in vivo, read-out: beta t1/2 (converted)
For each record, write down the corresponding half-life.
Numbers only, in min.

INSERT INTO measurements (cpd_smiles, readout_number) VALUES
  ('CCCNC(=O)[C@@H]1C[C@H]2CCC[C@@H](C1)[C@@H]2NC(=O)c1cc2sc(Br)nc2n1Cc1ccc(OC)cc1', 65.4);

Now, please, on to the next molecule.
Task item: Sample CCCNC(=O)C1CCN(C(=O)c2cc3sc(-c4ccccc4)cc3n2Cc2ccc(OC)cc2)CC1 — what was its half-life?
Reply: 124

====

MEASUREMENT NOTES: Selectivity index, ratio of CC50 for HEK293T cells to EC50 for full length Gaussia princeps Gluc-tagged Chikungunya virus IMT
Format: toxicity
EXPERIMENTAL CONDITIONS: human, read-out: Ratio CC50/EC50
OBSERVATION TYPE: selectivity ratio

INSERT INTO measurements (molecule, observation_type, result) VALUES
  ('CCCNC(=O)C1CCN(C(=O)c2cc3sc(Br)nc3n2Cc2ccc(OC)cc2)CC1', 'selectivity ratio', 35),
  ('CCCNC(=O)C1CCN(C(=O)c2cc3sc(Br)cc3n2Cc2ccc(OC)cc2)CC1', 'selectivity ratio', '> 32'),
  ('CCCNC(=O)[C@H]1[C@@H]2CCC[C@H]1CN(C(=O)c1cc3sc(Br)cc3n1Cc1ccc(OC)cc1)C2', 'selectivity ratio', '> 14'),
  ('[2H]C([2H])(c1ccc(OC)cc1)n1c(C(=O)N2CCC(C(=O)NCCC)CC2)cc2sc(Br)cc21', 'selectivity ratio', '> 49'),
  ('CCCNC(=O)[C@H]1[C@@H]2CCC[C@H]1CN(C(=O)c1cc3sc(-c4ccccc4)nc3n1Cc1ccc(OC)cc1)C2', 'selectivity ratio', '> 10'),
  ('CCCNC(=O)C1CC12CN(C(=O)c1cc3sc(Br)cc3n1Cc1ccc(OC)cc1)C2 (stereo unspecified)', 'selectivity ratio', '> 5'),
  ('CCCNC(=O)C1CCN(C(=O)c2cc3ccccc3n2Cc2ccc(OC)cc2)CC1', 'selectivity ratio', 3.3),
  ('CCCNC(=O)[C@H]1CC[C@H](NC(=O)c2cc3sc(Br)cc3n2Cc2ccc(OC)cc2)CC1', 'selectivity ratio', '> 7'),
  ('CCCNC(=O)C1CCN(C(=O)c2cc3cc(Br)sc3n2Cc2ccc(OC)cc2)CC1', 'selectivity ratio', '> 7.3'),
  ('CCCNC(=O)C1CCN(C(=O)c2cc3scnc3n2Cc2ccc(OC)cc2)CC1', 'selectivity ratio', 4.2);

Task item: Given CCCNC(=O)C1CCN(C(=O)c2cc3ccsc3n2Cc2ccc(OC)cc2)CC1 , state its recorded selectivity ratio.
Reply: 2.6

====

MEASUREMENT NOTES: Plasma clearance in C57BL/6 mouse at 3 mg/kg, iv
Type: ADME, organism-based
OBSERVATION TYPE: clearance (mL/min/kg)
Give bare numbers, in mL/min/kg.

INSERT INTO measurements (cpd_smiles, readout_number) VALUES
  ('CCCNC(=O)C1CCN(C(=O)c2cc3sc(-c4ccccc4)cc3n2Cc2ccc(OC)cc2)CC1', 18.6);

Below: the item to evaluate.
Task item: Give its clearance value. Item: CCCNC(=O)[C@@H]1C[C@H]2CCC[C@@H](C1)[C@@H]2NC(=O)c1cc2sc(Br)nc2n1Cc1ccc(OC)cc1
Reply: 5.68

====

MEASUREMENT NOTES: Plasma concentration in C57BL/6 mouse at 10 mg/kg, po administered as single dose measured at 24 hrs by HPLC-MS/MS analysis
Assay type: ADME, organism-based
OBSERVATION TYPE: concentration at 24 h

INSERT INTO measurements (cpd_smiles, result) VALUES
  ('CCCNC(=O)C1CCN(C(=O)c2cc3sc(-c4ccccc4)cc3n2Cc2ccc(OC)cc2)CC1', '< 0.5 ng/mL');

Task item: Fill in: concentration at 24 h of CCCNC(=O)[C@@H]1C[C@H]2CCC[C@@H](C1)[C@@H]2NC(=O)c1cc2sc(Br)nc2n1Cc1ccc(OC)cc1 is ___
Reply: < 0.5 ng/mL

====

Kindly state Tmax for each of the entries shown.
MEASUREMENT NOTES: Tmax in C57BL/6 mouse at 10 mg/kg, po
Type: ADME, organism-based
EXPERIMENTAL CONDITIONS: in vivo
One number for each entry, in min.

INSERT INTO measurements (cpd_smiles, output_unit, readout_number) VALUES
  ('CCCNC(=O)C1CCN(C(=O)c2cc3sc(-c4ccccc4)cc3n2Cc2ccc(OC)cc2)CC1', 'min', 40);

Note: attention shifts to another entry.
Task item: Recorded Tmax for CCCNC(=O)[C@@H]1C[C@H]2CCC[C@@H](C1)[C@@H]2NC(=O)c1cc2sc(Br)nc2n1Cc1ccc(OC)cc1 , please?
Reply: 20

====

Consider the following molecules; for each one, report its CC50 at 24 h.
MEASUREMENT NOTES: Cytotoxicity against human BJ cells assessed as reduction in cell viability after 24 hrs by CellTiter-Glo luminescent assay
Type: cell-based

INSERT INTO assay_data (molecule, observation_type, result) VALUES
  ('CCCNC(=O)C1CCN(C(=O)c2cc3sc(-c4ccccc4)cc3n2Cc2ccc(OC)cc2)CC1', 'CC50 at 24 h', '> 100 µM');

Task item: Looking for the measured CC50 at 24 h of NC(=O)c1ncn([C@@H]2O[C@H](CO)[C@@H](O)[C@H]2O)n1 [RIBAVIRIN] , can you help?
Reply: > 100 µM

====

MEASUREMENT NOTES: Volume of distribution in steady state in C57BL/6 mouse at 3 mg/kg, iv
Assay type: ADME, organism-based
EXPERIMENTAL CONDITIONS: in vivo, read-out: Vdss
OBSERVATION TYPE: Vd (L/kg)
Numbers only, in L/kg.

INSERT INTO measurements (cpd_smiles, observation_type, readout_number) VALUES
  ('CCCNC(=O)C1CCN(C(=O)c2cc3sc(-c4ccccc4)cc3n2Cc2ccc(OC)cc2)CC1', 'Vd', 2.45);

Task item: May I ask what Vd has been recorded for CCCNC(=O)[C@@H]1C[C@H]2CCC[C@@H](C1)[C@@H]2NC(=O)c1cc2sc(Br)nc2n1Cc1ccc(OC)cc1 ?
Reply: 0.337

====

MEASUREMENT NOTES: Plasma concentration in C57BL/6 mouse at 10 mg/kg, po administered as single dose measured within 1 hr post dose by HPLC-MS/MS analysis
Assay type: ADME, organism-based
OBSERVATION TYPE: concentration at 1 h (µM)
One number for each entry, in µM.

INSERT INTO assay_data (cpd_smiles, readout_number) VALUES
  ('CCCNC(=O)[C@@H]1C[C@H]2CCC[C@@H](C1)[C@@H]2NC(=O)c1cc2sc(Br)nc2n1Cc1ccc(OC)cc1', 17);

Now examine the next entry.
Task item: Which concentration at 1 h value belongs to CCCNC(=O)C1CCN(C(=O)c2cc3sc(-c4ccccc4)cc3n2Cc2ccc(OC)cc2)CC1 ?
Reply: 2

====

Give measured Cmax for each item. Keep answers brief.
MEASUREMENT NOTES: Cmax in C57BL/6 mouse at 10 mg/kg, po
Assay type: ADME, organism-based
Set-up: dose 10 mg/kg, route oral
EXPERIMENTAL CONDITIONS: in vivo
Numbers only, in ng/mL.

INSERT INTO results (cpd_smiles, observation_type, readout_number) VALUES
  ('CCCNC(=O)C1CCN(C(=O)c2cc3sc(-c4ccccc4)cc3n2Cc2ccc(OC)cc2)CC1', 'Cmax', 720);

Turning now to a further record.
Task item: Which value of Cmax has been reported for CCCNC(=O)[C@@H]1C[C@H]2CCC[C@@H](C1)[C@@H]2NC(=O)c1cc2sc(Br)nc2n1Cc1ccc(OC)cc1 in the records?
Reply: 6700

====

MEASUREMENT NOTES: Half life in human liver microsomes
Type: ADME, microsome
Provide the recorded half-life for the entries that follow.
Give bare numbers, in min.

A selection of reference data follows.
INSERT INTO assay_data (compound, observation_type, output_unit, readout_number) VALUES
  ('CCCNC(=O)[C@H]1[C@@H]2CCC[C@H]1CN(C(=O)c1cc3sc(Br)cc3n1Cc1ccc(OC)cc1)C2', 'half-life', 'min', 3.62),
  ('CCCNC(=O)C1CCN(C(=O)c2cc(Br)cn2Cc2ccc(OC)cc2)CC1', 'half-life', 'min', 2.17),
  ('CCCNC(=O)C1CCN(C(=O)c2cc3sc(-c4ccccc4F)cc3n2Cc2ccc(OC)cc2)CC1', 'half-life', 'min', 35.5);

Below are 8 compounds. Give each one its half-life.
1. CCCNC(=O)C1CCN(C(=O)c2cc3cc(Br)sc3n2Cc2ccc(OC)cc2)CC1
2. CCCNC(=O)C1CCN(C(=O)c2cc3sc(-c4ccccc4)nc3n2Cc2ccc(OC)cc2)CC1
3. CCCNC(=O)C1CCN(C(=O)c2cc3ncsc3n2Cc2ccc(OC)cc2)CC1
4. CCCNC(=O)C1CCN(C(=O)c2cc3oc(Br)cc3n2Cc2ccc(OC)cc2)CC1
5. CCCNC(=O)C1CCN(C(=O)c2cc3[nH]ccc3n2Cc2ccc(OC)cc2)CC1
6. CCCNC(=O)C1CCN(C(=O)c2cc3sc(C)cc3n2Cc2ccc(OC)cc2)CC1
7. CCCNC(=O)C1CC12CN(C(=O)c1cc3sc(Br)cc3n1Cc1ccc(OC)cc1)C2 (stereo unspecified)
8. CCCNC(=O)[C@@H]1C[C@H]2CCC[C@@H](C1)[C@@H]2NC(=O)c1cc2sc(-c3ccccc3)nc2n1Cc1ccc(OC)cc1

Reply:
1: 7.61; 2: 40.8; 3: 32.6; 4: 9.5; 5: 23.1; 6: 2.69; 7: 19.5; 8: 27.2
